Test: Acute toxicity, single intravenous injection, LD50 (Bliss method) in Kunming mice
Type: in vivo
Conditions: male, Kunming, mouse, in vivo, iv, Male Kunming mice, single intravenous injection; read-out: LD50
RECORDED_METRIC: LD50 at 2 weeks (mg/kg)

{"MOLECULE": "Fc1ccc(CSSSCc2ccc(F)cc2)cc1 [ACEA100108, Di(p-fluorobenzyl)trisulfide]", "UNIT_ANNOTATION": "mg/kg", "READOUT_NUMBER": 319}

* * *

Test: Acute toxicity, single intravenous injection, LD50 (Bliss method) in Kunming mice
Format: in vivo
Settings: male, Kunming, mouse, in vivo, iv, Male Kunming mice, single intravenous injection; confidence limits; read-out: LD50 (95% CL)

{"COMPOUND": "Fc1ccc(CSSSCc2ccc(F)cc2)cc1 [ACEA100108, Di(p-fluorobenzyl)trisulfide]", "LD50 at 2 weeks": "272 to 375 mg/kg"}
